Property measured: pCF

CC[C@H]1OC(=O)CC(O)[C@H](C)[C@@H](O[C@@H]2O[C@H](C)C[C@H](N(C)C)[C@H]2O)[C@@H](CCN(C)CCN(C)C)C[C@@H](C)C(=O)/C=C/C(C)=C/[C@@H]1C (stereo partly drawn) : 0.863
CC[C@H]1OC(=O)CC(O)[C@H](C)[C@@H](O[C@@H]2O[C@H](C)C[C@H](N(C)C)[C@H]2O)[C@@H](CCNCCO)C[C@@H](C)C(=O)/C=C/C(C)=C/[C@@H]1C (stereo partly drawn) : 1.217
CC[C@H]1OC(=O)CC(O)[C@H](C)[C@@H](O[C@@H]2O[C@H](C)C[C@H](N(C)C)[C@H]2O)[C@@H](CCNCC(C)(C)CO)C[C@@H](C)C(=O)/C=C/C(C)=C/[C@@H]1C (stereo partly drawn) : 1.161

====

Experiment: physchem
Description: Dissociation constant (pKa)
Property measured: pKa

CC[C@H]1OC(=O)CC(O)[C@H](C)[C@@H](O[C@@H]2O[C@H](C)C[C@H](N(C)C)[C@H]2O)[C@@H](CCN(C)CCCN(C)C(=O)[C@H](C)N)C[C@@H](C)C(=O)/C=C/C(C)=C/[C@@H]1C (some centres undefined) : 8.53
CC[C@H]1OC(=O)CC(O)[C@H](C)[C@@H](O[C@@H]2O[C@H](C)C[C@H](N(C)C)[C@H]2O)[C@@H](CCN(CCCN(C)C)C(=O)[C@H](C)N)C[C@@H](C)C(=O)/C=C/C(C)=C/[C@@H]1C (some centres undefined) : 8.78
CC[C@H]1OC(=O)CC(O)[C@H](C)[C@@H](O[C@@H]2O[C@H](C)C[C@H](N(C)C)[C@H]2O)[C@@H](CCNCCCN(C)C)C[C@@H](C)C(=O)/C=C/C(C)=C/[C@@H]1C (some centres undefined) : 8.88
CC[C@H]1OC(=O)CC(O)[C@H](C)[C@@H](O[C@@H]2O[C@H](C)C[C@H](N(C)C)[C@H]2O)[C@@H](CCN(C)CCN(C)C(=O)[C@H](C)N)C[C@@H](C)C(=O)/C=C/C(C)=C/[C@@H]1C (some centres undefined) : 8.13
CC[C@H]1OC(=O)CC(O)[C@H](C)[C@@H](O[C@@H]2O[C@H](C)C[C@H](N(C)C)[C@H]2O)[C@@H](CCNCC(C)(C)CO)C[C@@H](C)C(=O)/C=C/C(C)=C/[C@@H]1C (some centres undefined) : 9.72
CC[C@H]1OC(=O)CC(O)[C@H](C)[C@@H](O[C@@H]2O[C@H](C)C[C@H](N(C)C)[C@H]2O)[C@@H](CCN(C)CCN(C)C)C[C@@H](C)C(=O)/C=C/C(C)=C/[C@@H]1C (some centres undefined) : 8.19
CC[C@H]1OC(=O)CC(O)[C@H](C)[C@@H](O[C@@H]2O[C@H](C)C[C@H](N(C)C)[C@H]2O)[C@@H](CCNC2C(O)CCCC2O)C[C@@H](C)C(=O)/C=C/C(C)=C/[C@@H]1C (some centres undefined) : 9.31
CC[C@H]1OC(=O)C[C@@H](O)[C@H](C)[C@@H](O[C@@H]2O[C@H](C)[C@@H](O)[C@H](N(C)C)[C@H]2O)[C@@H](CCN2C[C@H](C)C[C@H](C)C2)C[C@@H](C)C(=O)/C=C/C(C)=C/[C@@H]1CO[C@@H]1O[C@H](C)[C@@H](O)[C@@H](OC)[C@H]1OC [TILMICOSIN] : 9.56
CC[C@H]1OC(=O)CC(O)[C@H](C)[C@@H](O[C@@H]2O[C@H](C)C[C@H](N(C)C)[C@H]2O)[C@@H](CCNCCO)C[C@@H](C)C(=O)/C=C/C(C)=C/[C@@H]1C (some centres undefined) : 9.62

====

Assay: physchem
Description: Dissociation constant (pKa)
Property measured: pKa

CC[C@H]1OC(=O)C[C@@H](O)[C@H](C)[C@@H](O[C@@H]2O[C@H](C)[C@@H](O)[C@@H](N(C)C)[C@H]2O)[C@@H](CC=O)C[C@@H](C)C(=O)/C=C/C(C)=C/[C@@H]1CO[C@@H]1O[C@H](C)[C@@H](O)[C@@H](OC)[C@H]1OC : 8.36
CC[C@H]1OC(=O)C[C@@H](O)[C@H](C)[C@@H](O[C@@H]2O[C@H](C)[C@@H](O)[C@H](N(C)C)[C@H]2O)[C@@H](CCN2C[C@H](C)C[C@H](C)C2)C[C@@H](C)C(=O)/C=C/C(C)=C/[C@@H]1CO[C@@H]1O[C@H](C)[C@@H](O)[C@@H](OC)[C@H]1OC : 8.18
CC[C@H]1OC(=O)CC(O)[C@H](C)[C@@H](O[C@@H]2O[C@H](C)C[C@H](N(C)C)[C@H]2O)[C@@H](CCNCCO)C[C@@H](C)C(=O)/C=C/C(C)=C/[C@@H]1C (stereo not given in full) : 8.59
CC[C@H]1OC(=O)CC(O)[C@H](C)[C@@H](O[C@@H]2O[C@H](C)C[C@H](N(C)C)[C@H]2O)[C@@H](CCNCCCN(C)C)C[C@@H](C)C(=O)/C=C/C(C)=C/[C@@H]1C (stereo not given in full) : 7.97
CC[C@H]1OC(=O)CC(O)[C@H](C)[C@@H](O[C@@H]2O[C@H](C)C[C@H](N(C)C)[C@H]2O)[C@@H](CCN(C)CCCN(C)C(=O)[C@H](C)N)C[C@@H](C)C(=O)/C=C/C(C)=C/[C@@H]1C (stereo not given in full) : 7.03

====

Assay: physchem
Description: Dissociation constant (pKa)
Property measured: pKa

CC[C@H]1OC(=O)CC(O)[C@H](C)[C@@H](O[C@@H]2O[C@H](C)C[C@H](N(C)C)[C@H]2O)[C@@H](CCN(C)CCN(C)C)C[C@@H](C)C(=O)/C=C/C(C)=C/[C@@H]1C (stereo not given in full) : 8.95
CC[C@H]1OC(=O)CC(O)[C@H](C)[C@@H](O[C@@H]2O[C@H](C)C[C@H](N(C)C)[C@H]2O)[C@@H](CCN(CCCN(C)C)C(=O)[C@H](C)N)C[C@@H](C)C(=O)/C=C/C(C)=C/[C@@H]1C (stereo not given in full) : 9.6
CC[C@H]1OC(=O)CC(O)[C@H](C)[C@@H](O[C@@H]2O[C@H](C)C[C@H](N(C)C)[C@H]2O)[C@@H](CCN(C)CCN(C)C(=O)[C@H](C)N)C[C@@H](C)C(=O)/C=C/C(C)=C/[C@@H]1C (stereo not given in full) : 8.9
CC[C@H]1OC(=O)CC(O)[C@H](C)[C@@H](O[C@@H]2O[C@H](C)C[C@H](N(C)C)[C@H]2O)[C@@H](CCN(C)CCCN(C)C(=O)[C@H](C)N)C[C@@H](C)C(=O)/C=C/C(C)=C/[C@@H]1C (stereo not given in full) : 9.16
CC[C@H]1OC(=O)CC(O)[C@H](C)[C@@H](O[C@@H]2O[C@H](C)C[C@H](N(C)C)[C@H]2O)[C@@H](CCNCCCN(C)C)C[C@@H](C)C(=O)/C=C/C(C)=C/[C@@H]1C (stereo not given in full) : 10.1

====

Property measured: Log K

The cases that follow already have their Log K on record.
CC[C@H]1OC(=O)[C@H](C)[C@@H](O[C@H]2C[C@@](C)(OC)[C@@H](O)[C@H](C)O2)[C@H](C)[C@@H](O[C@@H]2O[C@H](C)C[C@H](N(C)C)[C@H]2O)[C@](C)(O)C[C@@H](C)CN(C)[C@H](C)[C@@H](O)[C@]1(C)O : 0.38
CC[C@H]1OC(=O)C[C@@H](O)[C@H](C)[C@@H](O[C@@H]2O[C@H](C)[C@@H](O)[C@H](N(C)C)[C@H]2O)[C@@H](CCN2C[C@H](C)C[C@H](C)C2)C[C@@H](C)C(=O)/C=C/C(C)=C/[C@@H]1CO[C@@H]1O[C@H](C)[C@@H](O)[C@@H](OC)[C@H]1OC : 0.26
CC[C@H]1OC(=O)CC(O)[C@H](C)[C@@H](O[C@@H]2O[C@H](C)C[C@H](N(C)C)[C@H]2O)[C@@H](CCN(C)CCCN(C)C(=O)[C@H](C)N)C[C@@H](C)C(=O)/C=C/C(C)=C/[C@@H]1C (some centres undefined) : -0.16
CC[C@H]1OC(=O)CC(O)[C@H](C)[C@@H](O[C@@H]2O[C@H](C)C[C@H](N(C)C)[C@H]2O)[C@@H](CCNCC(C)(C)CO)C[C@@H](C)C(=O)/C=C/C(C)=C/[C@@H]1C (some centres undefined) : 0.43
CC[C@H]1OC(=O)CC(O)[C@H](C)[C@@H](O[C@@H]2O[C@H](C)C[C@H](N(C)C)[C@H]2O)[C@@H](CCN(CCCN(C)C)C(=O)[C@H](C)N)C[C@@H](C)C(=O)/C=C/C(C)=C/[C@@H]1C (some centres undefined) : -0.12
CC[C@H]1OC(=O)[C@H](C)[C@@H](O[C@H]2C[C@@](C)(OC)[C@@H](O)[C@H](C)O2)[C@H](C)[C@@H](O[C@@H]2O[C@H](C)C[C@H](N(C)C)[C@H]2O)[C@](C)(OC)C[C@@H](C)C(=O)[C@H](C)[C@@H](O)[C@]1(C)O : 0.63

a: CC[C@H]1OC(=O)CC(O)[C@H](C)[C@@H](O[C@@H]2O[C@H](C)C[C@H](N(C)C)[C@H]2O)[C@@H](CCN(C)CCN(C)C)C[C@@H](C)C(=O)/C=C/C(C)=C/[C@@H]1C (some centres undefined)
b: CCC1OC(=O)CC(O)C(C)C(O[C@@H]2O[C@H](C)C[C@H](N(C)C)[C@H]2O)C(CC=O)CC(C)C(=O)/C=C/C(C)=C/C1C (some centres undefined)
I'd appreciate it if you could identify which of a and b has the greater Log K. Please indicate the selected item by its label.
b
